Experiment: randomized 4-week study in OIC: SP-333 plasma levels
Assay type: in vivo, human
Conditions: human, plasma, 6 mg, subject 026-016; SP-333: 6 mg; visit week 4; time 60; read-out: SP-333 concentration
Positions of bridges follow the written chain, without caps; N, C: chain ends. Non-standard residues stand in square brackets, D forms with d. Residues, ends and D or L forms follow the SMILES beside them.
VALUE KIND: level at 1 h (ng/mL)
Answers are plain numbers, in ng/mL.

INPUT: I'd like to know its level at 1 h. The compound in question is CC(C)C[C@@H]1NC(=O)[C@H](CCC(=O)O)NC(=O)[C@@H](NC(=O)[C@H](CCC(=O)O)NC(=O)[C@H](CC(=O)O)NC(=O)[C@H](N)CC(N)=O)CSSC[C@@H]2NC(=O)[C@H](C)NC(=O)[C@H](C(C)C)NC(=O)[C@H](CC(N)=O)NC(=O)[C@H](C(C)C)NC(=O)[C@H](CSSC[C@@H](C(=O)N[C@H](CC(C)C)C(=O)O)NC(=O)CNC(=O)[C@H]([C@@H](C)O)NC2=O)NC1=O [SP-333] (H-[dN]DECELCVNVACTGC[dL]-OH; disulfide 4-12, 7-15)
OUTPUT: 1.5

====

Assay: randomized 4-week study in OIC: SP-333 plasma levels
Format: in vivo, human
Conditions: human, plasma, 6 mg, subject 006-004; SP-333: 6 mg; visit week 1; time 60; read-out: SP-333 concentration
Positions of bridges follow the written chain, without caps; N, C: chain ends. Non-standard residues stand in square brackets, D forms with d. Residues, ends and D or L forms follow the SMILES beside them.
VALUE KIND: level at 1 h (ng/mL)
One number for each entry, in ng/mL.

INPUT: I'd like to know its level at 1 h. The compound in question is CC(C)C[C@@H]1NC(=O)[C@H](CCC(=O)O)NC(=O)[C@@H](NC(=O)[C@H](CCC(=O)O)NC(=O)[C@H](CC(=O)O)NC(=O)[C@H](N)CC(N)=O)CSSC[C@@H]2NC(=O)[C@H](C)NC(=O)[C@H](C(C)C)NC(=O)[C@H](CC(N)=O)NC(=O)[C@H](C(C)C)NC(=O)[C@H](CSSC[C@@H](C(=O)N[C@H](CC(C)C)C(=O)O)NC(=O)CNC(=O)[C@H]([C@@H](C)O)NC2=O)NC1=O [SP-333] (H-[dN]DECELCVNVACTGC[dL]-OH; disulfide 4-12, 7-15)
OUTPUT: 1.77

====

Test: randomized 4-week study in OIC: SP-333 plasma levels
Format: in vivo, human
Conditions: human, plasma, 6 mg, subject 006-004; SP-333: 6 mg; visit week 1; time 30; read-out: SP-333 concentration
Positions of bridges follow the written chain, without caps; N, C: chain ends. Non-standard residues stand in square brackets, D forms with d. Residues, ends and D or L forms follow the SMILES beside them.
VALUE KIND: level at 0.5 h (ng/mL)
Numbers only, in ng/mL.

INPUT: I'd like to know its level at 0.5 h. The compound in question is CC(C)C[C@@H]1NC(=O)[C@H](CCC(=O)O)NC(=O)[C@@H](NC(=O)[C@H](CCC(=O)O)NC(=O)[C@H](CC(=O)O)NC(=O)[C@H](N)CC(N)=O)CSSC[C@@H]2NC(=O)[C@H](C)NC(=O)[C@H](C(C)C)NC(=O)[C@H](CC(N)=O)NC(=O)[C@H](C(C)C)NC(=O)[C@H](CSSC[C@@H](C(=O)N[C@H](CC(C)C)C(=O)O)NC(=O)CNC(=O)[C@H]([C@@H](C)O)NC2=O)NC1=O [SP-333] (H-[dN]DECELCVNVACTGC[dL]-OH; disulfide 4-12, 7-15)
OUTPUT: 2.71
